Sourced from ChEMBL document CHEMBL4406920

# Target System: Prolyl endopeptidase (Mus musculus, UniProt Q9QUR6)
# Sequence (Q9QUR6 whole entry): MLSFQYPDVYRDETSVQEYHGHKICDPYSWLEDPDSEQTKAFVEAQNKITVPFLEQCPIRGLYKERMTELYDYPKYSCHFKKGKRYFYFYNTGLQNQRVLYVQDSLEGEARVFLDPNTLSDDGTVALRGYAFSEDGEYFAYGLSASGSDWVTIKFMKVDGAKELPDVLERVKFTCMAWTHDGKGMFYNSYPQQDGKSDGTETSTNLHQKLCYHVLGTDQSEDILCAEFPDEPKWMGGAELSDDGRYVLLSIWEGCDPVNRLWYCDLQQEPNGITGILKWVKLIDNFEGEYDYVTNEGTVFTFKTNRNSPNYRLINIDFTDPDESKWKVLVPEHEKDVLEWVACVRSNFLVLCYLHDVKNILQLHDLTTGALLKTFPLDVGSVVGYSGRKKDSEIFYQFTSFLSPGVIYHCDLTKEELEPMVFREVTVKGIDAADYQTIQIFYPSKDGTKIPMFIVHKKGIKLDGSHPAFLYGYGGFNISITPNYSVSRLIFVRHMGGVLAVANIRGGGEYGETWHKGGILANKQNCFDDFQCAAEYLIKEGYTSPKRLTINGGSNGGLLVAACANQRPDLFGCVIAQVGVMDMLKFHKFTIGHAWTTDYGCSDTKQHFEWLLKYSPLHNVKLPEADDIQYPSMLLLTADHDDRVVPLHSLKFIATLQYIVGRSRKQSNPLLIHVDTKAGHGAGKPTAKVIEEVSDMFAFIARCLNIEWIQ
IC50 strictly under 0.3 µM means Criterion met; at 0.3 µM or over means Criterion not met.

# Smiles Input, Target System, Category
rows = [
    ("C[C@@H](C(=O)N1CCC[C@H]1C(N)=O)N(C)C(=O)CCCc1ccccc1", "Prolyl endopeptidase (Mus musculus, UniProt Q9QUR6)", "Criterion not met"),
    ("CC(C)(NC(=O)CCCc1ccccc1)C(=O)N1CCCC1", "Prolyl endopeptidase (Mus musculus, UniProt Q9QUR6)", "Criterion not met"),
    ("N#C[C@@H]1CCCN1C(=O)CNC(=O)CCCc1ccccc1", "Prolyl endopeptidase (Mus musculus, UniProt Q9QUR6)", "Criterion met"),
    ("CN(CC(=O)N1CCCC1)C(=O)CCCc1ccccc1", "Prolyl endopeptidase (Mus musculus, UniProt Q9QUR6)", "Criterion not met"),
]

----------
# Target System: Prolyl endopeptidase (Sus scrofa, UniProt P23687)
# Sequence (P23687 whole entry): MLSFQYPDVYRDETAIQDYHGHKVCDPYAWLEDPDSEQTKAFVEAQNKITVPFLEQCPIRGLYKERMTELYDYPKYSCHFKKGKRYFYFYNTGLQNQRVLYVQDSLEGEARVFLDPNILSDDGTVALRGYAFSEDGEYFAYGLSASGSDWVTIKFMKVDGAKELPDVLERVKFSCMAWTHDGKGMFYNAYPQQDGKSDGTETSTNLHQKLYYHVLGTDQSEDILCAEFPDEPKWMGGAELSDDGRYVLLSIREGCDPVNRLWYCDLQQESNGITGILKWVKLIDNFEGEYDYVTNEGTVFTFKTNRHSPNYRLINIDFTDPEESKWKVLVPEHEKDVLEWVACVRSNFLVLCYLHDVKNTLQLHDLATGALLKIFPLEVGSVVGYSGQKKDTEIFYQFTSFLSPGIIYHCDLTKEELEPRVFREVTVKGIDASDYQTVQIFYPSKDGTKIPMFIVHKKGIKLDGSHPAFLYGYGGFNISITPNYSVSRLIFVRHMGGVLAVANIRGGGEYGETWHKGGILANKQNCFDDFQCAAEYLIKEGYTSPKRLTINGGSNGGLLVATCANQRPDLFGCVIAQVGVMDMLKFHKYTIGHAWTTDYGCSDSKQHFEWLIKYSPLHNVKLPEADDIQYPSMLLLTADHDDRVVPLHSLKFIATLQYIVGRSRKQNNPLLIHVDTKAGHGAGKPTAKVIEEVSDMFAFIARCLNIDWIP
# Assay Text: Inhibition of recombinant porcine brain PREP expressed in Escherichia coli assessed as formation of 7-amido-4-methylcoumarin using Suc-Gly-Pro-amido-4-methylcoumarin as substrate preincubated for 30 mins followed by substrate addition measured after 60 mins by fluorometric assay
pIC50: −log10 of the molar value.
Okay, here is how we bin by pIC50: low group = under 5, middle group = from 5 up to 7, high group = 7 and over

# Smiles Input, Category
records = [
    ("C[C@H](NC(=O)CCCc1ccccc1)C(=O)N1CCC[C@H]1C(=O)O", "low group"),
    ("O=C(CCCc1ccccc1)NCC(=O)N1CCC[C@H]1c1nnn[nH]1", "low group"),
    ("CN(CC(=O)N1CCC[C@H]1C#N)C(=O)CCCc1ccccc1", "middle group"),
    ("C[C@@H](C(=O)N1CCC[C@H]1c1nnn[nH]1)N(C)C(=O)CCCc1ccccc1", "low group"),
    ("NC(=O)[C@@H]1CCCN1C(=O)[C@@H]1CCCN1C(=O)CCCc1ccccc1", "middle group"),
    ("C[C@@H](C(=O)N1CCC[C@H]1C#N)N(C)C(=O)CCCc1ccccc1", "high group"),
    ("N#C[C@@H]1CCCN1C(=O)CNC(=O)CCCc1ccccc1", "middle group"),
    ("O=C(CCCc1ccccc1)N1CCC[C@H]1C(=O)N1CCC[C@H]1c1nnn[nH]1", "high group"),
    ("C[C@H](NC(=O)CCCc1ccccc1)C(=O)N1CCC[C@H]1C#N", "high group"),
    ("O=C(O)[C@@H]1CCCN1C(=O)[C@@H]1CCCN1C(=O)CCCc1ccccc1", "middle group"),
]
